experimental.readout: IC50 (nM)
State just the number; it will be interpreted in nM.

Form field: IC50 recorded for `N#CCNC(=O)c1ccc(-c2ccnc(Nc3ccc(N4CCOCC4)cc3)n2)cc1` with ACVR1 (ALK2) (Homo sapiens, UniProt Q04771) (enter value) 8.4
